Biological target: Mitogen-activated protein kinase 1 (Homo sapiens) (UniProt P28482)
Sequence (P28482 whole entry): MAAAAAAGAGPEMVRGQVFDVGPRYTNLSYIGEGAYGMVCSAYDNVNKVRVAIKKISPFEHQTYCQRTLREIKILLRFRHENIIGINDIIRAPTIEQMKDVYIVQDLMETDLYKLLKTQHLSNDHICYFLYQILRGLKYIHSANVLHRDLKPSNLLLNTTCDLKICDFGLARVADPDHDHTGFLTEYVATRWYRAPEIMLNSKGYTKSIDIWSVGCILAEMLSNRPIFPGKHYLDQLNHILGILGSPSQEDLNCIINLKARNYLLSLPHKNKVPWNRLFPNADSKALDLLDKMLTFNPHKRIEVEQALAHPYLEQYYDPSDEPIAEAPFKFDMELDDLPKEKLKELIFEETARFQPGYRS
Details: Compound concentration 20.0 uM, Protein concentration 2.0 uM, Result type QC Liability
Description: Thermal Shift Assay. Domain: start/stop: M1-S360
observed-property: ΔTm (°C)
Use °C as the unit, but write only the number.

Param item = COC(=O)c1ccc2c(c1)NC(=O)/C2=C(\Nc1ccc(-c2nccn2C)cc1)c1ccccc1 ; retrieve measured ΔTm. -6.31

Next record, please: CC(C)(C)OC(=O)CN1C(=O)c2c(OCC(=O)O)cccc2Oc2ccc(C(F)(F)F)cc21 0.51

Next record, please: O=C(CNC(=O)c1ccc(-c2ccccc2)cc1)NC1CCCc2ccccc21 (stereo not given) 0.17

Next record, please: CCCS(=O)(=O)N[C@H]1C[C@@H](N(C)c2ncnc3[nH]ccc23)C1 0.29

Next record, please: N=C(N)NCCC[C@H](NC(=O)CC1(CC(=O)N2CCN(C(c3ccccc3)c3ccccc3)CC2)CCCC1)C(=O)NCc1ccccc1 -0.93

Next record, please: CC(=O)Nc1c(F)cc(C(=O)N[C@H]2CC[C@H](O)CC2)cc1O[C@@H](C)c1ccccc1 0.43

Next record, please: Cc1nccn1-c1ccc(Sc2cccc(C3(C(N)=O)CCOCC3)c2)cc1 0.38

Next record, please: CN1CCC(F)(Cn2cnc(-c3ccc(F)cn3)c2-c2ccnc3[nH]ccc23)CC1 0.37

Next record, please: CN1CCN(c2ccnc(NCCc3ccccc3)n2)CC1 0.69

Next record, please: COc1cc(O)c(C(CC(=O)N2C[C@H](C)C[C@H](C)C2)c2ccc3c(c2)OCO3)c(OC)c1 (stereo not given in full) 0.25

Next record, please: CC(=O)Nc1ncc(CN2CCC[C@H](Cc3cc(C)nc(C)c3)C2)s1 0.35

Next record, please: CC[C@H](Nc1c(C#N)c(-c2ccc(-c3cccc(C)c3F)cc2)nc2cnccc12)C(=O)O -0.11

Next record, please: CCNc1ccc(-c2nn(-c3ccccc3C)c3c2C(C)Cc2nc(NC(=O)OC)sc2-3)cn1 (stereo not given) -0.13

Next record, please: CC(C)(C#Cc1ccc(NC(=O)COc2ccccc2C(=O)c2ccccc2)c(Cl)c1)C(=O)O -0.94

Next record, please: Cc1nc2ccc(Oc3ccc(F)cc3)cc2c(=O)n1C[C@H]1CCCN(C(C)C)C1 0.41

Next record, please: CCN1C(=O)c2cc(C)ccc2N(C)c2ncccc21 0.23

Next record, please: CCc1nc(-c2cccc(C)c2)c(-c2ccncc2)s1 0.28

Next record, please: O=C(O)CCCCN(CCc1cc(F)ccc1OCc1ccc(-c2ccc(C(F)(F)F)cc2)cc1)Cc1ccc(C(=O)O)cc1 -0.69

Next record, please: CCOC(=O)Nc1ccc2c(c1)N(C(=O)CN(CC)CC)c1ccccc1CC2 0.19

Next record, please: CS(=O)(=O)CCNCc1ccc(-c2ccc3ncnc(Nc4ccc(OCc5cccc(F)c5)c(Cl)c4)c3c2)o1 0.56

Next record, please: CC(C(=O)Nc1cc(C#N)ccc1CCCC(=O)O)c1ccc(F)c2ccccc12 (stereo not given) -0.07

Next record, please: CCn1c(-c2nonc2N)nc2ccccc21 0.41

Next record, please: COc1cc(C)c(S(=O)(=O)N(C)CCC(=O)N[C@H]2CC[C@@H](N3CCC4CN(C)CC4C3)CC2)c(C)c1 (stereo not given in full) 0.83

Next record, please: COc1ccc(-c2csc(NC(=O)[C@H]3CCCCN3S(=O)(=O)c3ccc(C)cc3)n2)cc1 -0.89

Next record, please: C[C@H](NC(=O)c1cnc2n1[C@](C)(Cc1ccc(C#N)cc1)C(=O)N2c1cc(Cl)c(F)c(Cl)c1)C(=O)NC1(c2ccccn2)CC1 10.2

Next record, please: COCCCS(=O)(=O)c1cc(C)c(-c2ccc(F)c3c2CC[C@H]3Oc2ccc3c(c2)OC[C@H]3CC(=O)O)c(C)c1 0

Next record, please: Cc1cccc(-c2nn3c(c2-c2ccnc4ccc(C(N)=O)cc24)CCC3)n1 0.51

Next record, please: C[C@H](CCOc1cccc(CC(=O)O)c1)N(Cc1cccc(C(F)(F)F)c1Cl)CC(c1ccccc1)c1ccccc1 0.41

Next record, please: CC(C)S(=O)(=O)c1ccccc1Nc1nc(N[C@@H]2CCCN(CCCCCCCNC(=O)COc3cccc4c3C(=O)N(C3CCC(=O)NC3=O)C4=O)C2)ncc1Cl (stereo not given in full) 3.07

Next record, please: CS(=O)(=O)NCC[C@H](NC(=O)c1cncc2c1cnn2-c1ccc(F)cc1)c1ccnc(S(C)(=O)=O)c1 0.26

Next record, please: COCCOCn1c(S(C)(=O)=O)nc2c1c(=O)n(C)c(=O)n2C -0.83

Next record, please: CC(=O)c1ccc2c(c1)/C(=C(/NC1CCN(C)CC1)c1ccc3c(c1)OCO3)C(=O)N2 0.57

Next record, please: Cc1c(-c2c(F)cc(C(N)=O)c3[nH]c4c(c23)CC[C@H](C(C)(C)O)C4)cccc1-n1c(=O)c2cccc(F)c2n(C)c1=O -0.33

Next record, please: CC1CCN(C(=O)[C@H](CCn2cccc2C#N)NS(=O)(=O)c2cccc3[nH]ccc23)CC1 0.72
